Would you mind telling me the reported MIC of each entry?
# Tested on: Micrococcus luteus ATCC 9341

query: Consider the molecule shown here: CC[C@H]1OC(=O)[C@H](C)C(=O)[C@H](C)[C@@H](O[C@@H]2O[C@H](C)C[C@H](N(C)Cc3cccc(O)c3)[C@H]2O)[C@](C)(OCC=Cc2cnc3ccccc3c2)C[C@@H](C)C(=O)[C@H](C)[C@H]2NC(=O)O[C@@]21C What is its recorded MIC?
result: 0.1 µg/mL

query: Consider the molecule shown here: CC[C@H]1OC(=O)[C@H](C)C(=O)[C@H](C)[C@@H](O[C@@H]2O[C@H](C)C[C@H](N(C)Cc3ccccc3)[C@H]2O)[C@](C)(OCC=Cc2cnc3ccccc3c2)C[C@@H](C)C(=O)[C@H](C)[C@H]2NC(=O)O[C@@]21C What is its recorded MIC?
result: 0.05 µg/mL

----------
# Test system: Streptococcus Pheumoniae GYR 1171
Would you mind telling me the reported MIC of each entry?
Report only the number, with the unit mg/L understood.

query: Consider the compound shown here: CCOC(=O)CN(C)[C@H]1C[C@@H](C)O[C@@H](O[C@@H]2[C@@H](C)C(=O)[C@@H](C)C(=O)O[C@H](CC)[C@@]3(C)OC(=O)N[C@@H]3[C@@H](C)C(=O)[C@H](C)C[C@@]2(C)OCC=Cc2cnc3ccccc3c2)[C@@H]1O [Example 5] What is its recorded MIC?
result: 0.25

query: Consider the compound shown here: CC[C@H]1OC(=O)[C@H](C)C(=O)[C@H](C)[C@@H](O[C@@H]2O[C@H](C)C[C@H](N(C)CC3CC3)[C@H]2O)[C@](C)(OCC=Cc2cnc3ccccc3c2)C[C@@H](C)C(=O)[C@H](C)[C@H]2NC(=O)O[C@@]21C [Example 15] What is its recorded MIC?
result: 0.03

----------
Assay Metric: MIC (µg/mL)
Report only the number, with the unit µg/mL understood.

query: Lab request: please report MIC under test system Streptococcus agalactiae CMX 508 for CC[C@H]1OC(=O)[C@H](C)C(=O)[C@H](C)[C@@H](O[C@@H]2O[C@H](C)C[C@H](N(C)C3CC3)[C@H]2O)[C@](C)(OCC=Cc2cnc3ccccc3c2)C[C@@H](C)C(=O)[C@H](C)[C@H]2NC(=O)O[C@@]21C [Example 13]
result: 0.2

query: Lab request: please report MIC under test system Streptococcus agalactiae CMX 508 for CC[C@H]1OC(=O)[C@H](C)C(=O)[C@H](C)[C@@H](O[C@@H]2O[C@H](C)C[C@H](N(C)C3CC3)[C@H]2O)[C@](C)(OCC=Cc2cnc3ccccc3c2)C[C@@H](C)C(=O)[C@H](C)[C@H]2NC(=O)O[C@@]21C [Example 20]
result: 0.2

query: Lab request: please report MIC under test system Streptococcus agalactiae CMX 508 for C=C(C)CN(C)[C@H]1C[C@@H](C)O[C@@H](O[C@@H]2[C@@H](C)C(=O)[C@@H](C)C(=O)O[C@H](CC)[C@@]3(C)OC(=O)N[C@@H]3[C@@H](C)C(=O)[C@H](C)C[C@@]2(C)OCC=Cc2cnc3ccccc3c2)[C@@H]1O
result: 0.02

----------
Lab note: MIC readings collected with Streptococcus agalactiae CMX 508 for the following compounds.
Report only the number, with the unit µg/mL understood.

query: Consider the compound shown here: CC[C@H]1OC(=O)[C@H](C)C(=O)[C@H](C)[C@@H](O[C@@H]2O[C@H](C)C[C@H](N(C)Cc3cccc(O)c3)[C@H]2O)[C@](C)(OCC=Cc2cnc3ccccc3c2)C[C@@H](C)C(=O)[C@H](C)[C@H]2NC(=O)O[C@@]21C [Example 22] What is its recorded MIC?
result: 0.1

query: Consider the compound shown here: CC[C@H]1OC(=O)[C@H](C)C(=O)[C@H](C)[C@@H](O[C@@H]2O[C@H](C)C[C@H](N(C)Cc3cccnc3)[C@H]2O)[C@](C)(OCC=Cc2cnc3ccccc3c2)C[C@@H](C)C(=O)[C@H](C)[C@H]2NC(=O)O[C@@]21C [Example 14] What is its recorded MIC?
result: 0.2

query: Consider the compound shown here: CC[C@H]1OC(=O)[C@H](C)[C@@H](O[C@H]2C[C@@](C)(OC)[C@@H](O)[C@H](C)O2)[C@H](C)[C@@H](O[C@@H]2O[C@H](C)C[C@H](N(C)C)[C@H]2O)[C@](C)(O)C[C@@H](C)C(=O)[C@H](C)[C@@H](O)[C@]1(C)O [Ery. A, Erythromycin A, reference compound] What is its recorded MIC?
result: 0.05
